Provenance of the data: paper PMC8281026

molecular target: p38α (Homo sapiens); construct: made in house; host or cells: Escherichia coli; test: Fluorescence polarization competitive binding assay, p38; details: competitive FP titration against 50 nM Cf-RHDF (gives Ki, used as proxy of Kd); 20 mM Tris pH 8.0, 100 mM NaCl, 0.05% Brij35, 2 mM TCEP; at least 3 independent measurements; read-out: Kd (µM) ± sd, p38
reported.metric: Kd (µM)

substance="H-RRRPPWLRLDIRR-NH2 [compound 8, H-RRRPPWLRLDIRR-NH 2]" reported_metric=Kd val=1.4

----------
molecular target: p38 (pp-p38α) (Homo sapiens); test: In vitro MAPK activity assay (Nanobit luciferase protein fragment complementation), p38; format: biochemical; details: 1 nM pp-p38α, 2 mM ATP, 50 mM HEPES pH 7.5; initial rates, luminescence; at least 3 independent measurements
Sequence (Q16539 whole entry, the tested form may be a part): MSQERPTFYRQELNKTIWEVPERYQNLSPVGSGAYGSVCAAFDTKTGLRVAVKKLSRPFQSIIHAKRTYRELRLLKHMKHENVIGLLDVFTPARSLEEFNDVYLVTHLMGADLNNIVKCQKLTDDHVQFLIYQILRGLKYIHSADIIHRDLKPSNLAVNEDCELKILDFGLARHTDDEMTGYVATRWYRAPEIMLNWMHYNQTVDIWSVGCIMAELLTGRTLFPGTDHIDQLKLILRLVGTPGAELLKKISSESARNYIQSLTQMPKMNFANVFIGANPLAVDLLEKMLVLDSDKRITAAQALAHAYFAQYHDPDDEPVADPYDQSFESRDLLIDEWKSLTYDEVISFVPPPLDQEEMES
reported.metric: EC50 (µM)

substance="H-RRRPPWLRLDIRR-NH2 [compound 8, H-RRRPPWLRLDIRR-NH 2]" val=1.3
substance="H-RRPPWLRLDIRR-NH2 [compound 6, H-RRPPWLRLDIRR-NH 2]" val=3.7
